- assay: Radical scavenging capacity measured by photochemilluminescence (Photochem system)
- Format: biochemical
- measurement-conditions: lowest effective concentration, base 10 serial dilution
Catalogue of Effective Concentration (to eliminate radical formation) readings, one per entry.
State just the number; it will be interpreted in nmol/L.

# Effective Concentration (to eliminate radical formation) (compound: `COC1=C(OC)C(=O)C(CCCCCCCCCCO)=C(C)C1=O` ) is 10

Record `COC1=C(OC)C(=O)C(C/C=C(\C)CC/C=C(\C)CC/C=C(\C)CC/C=C(\C)CC/C=C(\C)CC/C=C(\C)CC/C=C(\C)CC/C=C(\C)CC/C=C(\C)CCC=C(C)C)=C(C)C1=O` , field Effective Concentration (to eliminate radical formation): 100

With those in mind, consider the next compound.
// recorded Effective Concentration (to eliminate radical formation) for Cc1c(C)c2c(c(C)c1O)CCC(C)(CCCC(C)CCCC(C)CCCC(C)C)O2 (racemic) : 10
